# credit: paper PMC12040169

Documented viability at 28.5 h, 10 µM across a set of molecules
# Assay protocol: in vitro
# Condition info: human, hela cells, % viability
Give a bare numeral; the unit % is implied.

{"columns": ["Smiles code", "Value unit", "Experimental result"],
 "data": [
  ["COCc1cccc(-c2nccnc2OCC(=O)OC)c1", "%", 98.7],
  ["CC1CCN(S(=O)(=O)c2ccc(NC(=O)C3=COCCO3)cc2)CC1", "%", 102],
  ["Cc1cc(OCC(=O)Nc2ccccc2CO)cc(C)c1Br", "%", 88.2]
]}

Asked: Query: viability at 28.5 h, 10 µM; subject: "O=C(Nc1ccc2c(c1)nc1n2CCOC1)C1CCCCC1"
Given back: 90

====

# Assay protocol: in vitro
# Condition info: human, hela cells, % viability
viability at 28.5 h, 10 µM values for the compounds below.
Write the value in % as a bare number.

Record excerpt, results attached:
{"columns": ["Compound", "viability at 28.5 h, 10 µM / %"],
 "data": [
  ["CCC1(CC)OC(N[C@@H](C)c2ccc(Br)cc2)=NC1=O [CBK126665]", 102],
  ["C[C@H](Nc1nc(-c2cccc(C(N)=O)c2)cnc1N)c1ccccc1 [CBK063715]", 97.1],
  ["Cc1ccc(-c2csc(C3CN4CCCC4CO3)n2)s1 (centres unmarked) [CBK304113]", 121]
]}

Asked: What value of viability at 28.5 h, 10 µM has been recorded for this entry: COc1ccc2c(c1)c(C(=O)NCCn1nc(C)cc1C)c(C)n2C [CBK304615]
Given back: 78

Asked: Now the same for CC(=O)N1CCC[C@H]2NC(=O)CNC(=O)C3(C/C=C/C[C@H]21)CCN(C(=O)c1cc(C)no1)CC3 [CBK292176]
Given back: 104

====

# Assay protocol: in vitro
# Condition info: human, hela cells, % viability
Recorded measurements of viability at 28.5 h, 10 µM, one per entry
A complete answer gives the number followed by the unit.

Reference set, count: 2
{"columns": ["Molecule", "Quantity measured", "Experimental result"],
 "data": [
  ["Nn1c(=O)c2ccccc2n2c(SCC(=O)N(c3ccccc3)c3ccccc3)nnc12", "viability at 28.5 h, 10 µM", "99.3%"],
  ["CN1CCC(=NNC(=O)c2ccc(N(Cc3ccccc3)S(C)(=O)=O)cc2)CC1", "viability at 28.5 h, 10 µM", "82.4%"]
]}

Asked: I would be grateful if you could share the reported viability at 28.5 h, 10 µM for COc1ccc(C23CCCN(C)C2C[C@@H](O)CC3)cc1OC (stereo partly drawn) [CBK016226C] .
Given back: 94.1%

Asked: Thanks! And "CS(=O)(=O)c1ccc(-c2c[nH]c([C@@H]3COCCN3Cc3c[nH]c4ccccc34)n2)cc1" ?
Given back: 92%

Asked: Would you mind doing CC1CCCCN1Cc1nc2c(c(=O)n(C)c(=O)n2C)n1CCCc1ccccc1 (stereo not drawn) as well?
Given back: 97%

Asked: "Cc1ccc(S(=O)(=O)NCCOc2ccc(Cl)cc2)cc1[N+](=O)[O-]" ?
Given back: 106%

====

# Assay protocol: in vitro
# Condition info: human, hela cells, % viability
Quantity measured: viability at 28.5 h, 10 µM (%)
// note: answer is a bare numeric in %

// known answers, use as guide
{"columns": ["Compound", "Value unit", "viability at 28.5 h, 10 µM"],
 "data": [
  ["CC1=NN(c2nc(-c3ccc(Br)cc3)cs2)C(=O)C1/N=N/c1ccc(C(=O)O)cc1 (stereo not shown) [CBK262435]", "%", 86.7],
  ["COCCc1noc(CC2CCN(c3nc(C#N)c(Cl)s3)CC2)n1 [CBK304205]", "%", 102],
  ["CC(NC(=O)CCc1ccncc1)c1nc2ccccc2s1 (stereo not shown) [CBK281666]", "%", 98.9]
]}

Asked: Item under review: CCCC(=O)NCCn1nc(-c2ccccc2F)cc1CN(C)C [CBK282000] . Reported viability at 28.5 h, 10 µM?
Given back: 111

Asked: Ok, now CCn1nc(C)c(-c2cncn2CCN(C)C2CCCC2)c1C [CBK281569]
Given back: 109

Asked: How about this compound: O=C1CN(C(=O)NCCOc2ccccc2)CCN1 [CBK155871]
Given back: 120

Asked: # repeat for Cn1c(=O)c2c(nc(CN3CCC(Cc4ccccc4)CC3)n2CCN2CCOCC2)n(C)c1=O [CBK269380]
Given back: 100

Asked: Could you do the same for CNS(=O)(=O)c1cc(C(=O)NCc2ccco2)ccc1OC [CBK270180] , please?
Given back: 103

Asked: Consider next the compound O=C(Nc1cccc(CCc2ccncc2)c1)C1CC(=O)N(Cc2ccncc2)C1 (stereo not shown) [CBK286287] in the same way.
Given back: 89.6

Asked: Let us now turn to OCCOc1ncnc2ccccc12 [CBK001412]
Given back: 107

====

# Assay protocol: in vitro
# Condition info: human, hela cells, % viability
# label = MET if viability at 28.5 h, 10 µM < 90% else NOT MET

Recorded results for 5 compounds are shown here.
{"columns": ["Smiles code", "Cat"],
 "data": [
  ["c1coc(CNc2nc(-c3ccoc3)cn3ccnc23)c1", "NOT MET"],
  ["O=C(NC1CCCCC1)c1s/c(=N/O)nnc1Nc1ccccc1", "NOT MET"],
  ["COC(=O)c1c(NC(=O)CCCC(=O)O)sc2c1CCCCC2", "MET"],
  ["COc1ccc(-n2ncc3c2CCCN(C(=O)C2CC2)C3)cc1", "MET"],
  ["O=C(CN1CCC(C(=O)c2ccc(F)cc2)CC1)c1ccsc1", "NOT MET"]
]}

Asked: is_below(viability at 28.5 h, 10 µM, 90%) for "COc1ccc(NC(=O)c2ccc(-c3cnc(Nc4ccc(N5CCOCC5)cc4)c4nccn34)cc2)cc1" ?
Given back: NOT MET

Asked: Would you kindly repeat that for "Nc1ncc(-c2ccc(C(=O)N3CCOCC3)cc2)nc1-c1ccsc1" ?
Given back: NOT MET

====

# Assay protocol: in vitro
# Condition info: human, hela cells, % viability
# maps each entry to its viability at 28.5 h, 10 µM
Give the value, in units of %, as a plain number.

{"columns": ["Compound", "Quantity measured", "Experimental result"],
 "data": [
  ["CC(=O)Nc1ccc(S(=O)(=O)NC2(C(F)(F)F)N=C(c3ccccc3)NC2=O)cc1 (centres unmarked)", "viability at 28.5 h, 10 µM", 113],
  ["CC(C)CNC(=O)c1cc([C@H]2CC[C@H](CNC(=O)c3cnn(C)c3)CC2)nc2ccccc12", "viability at 28.5 h, 10 µM", 114],
  ["COc1ccccc1-c1ccc(NS(=O)(=O)c2ccc3c(c2)CCC(=O)N3)cc1", "viability at 28.5 h, 10 µM", 82.5],
  ["O=C(COc1ccccc1)Nc1ccc(N2CCOCC2)c2nonc12", "viability at 28.5 h, 10 µM", 87.9],
  ["O=C(Nc1ccc2c(c1)CCO2)N1CCCC1c1nc(-c2ccccc2)c2ccccn12 (centres unmarked)", "viability at 28.5 h, 10 µM", 117],
  ["COCCN(C(=O)c1[nH]c2c(F)cccc2c1C)C1CCN(C)CC1", "viability at 28.5 h, 10 µM", 95],
  ["O=C1/C(=N\\O)c2ccccc2N1Cc1ccccc1", "viability at 28.5 h, 10 µM", 99.7],
  ["NS(=O)(=O)c1cc(C(=O)OCC(=O)c2ccccc2)c(Cl)cc1Cl", "viability at 28.5 h, 10 µM", 90.8],
  ["Cc1noc(C)c1S(=O)(=O)Nc1ccccc1C(=O)O", "viability at 28.5 h, 10 µM", 89.8],
  ["O=C(CCCn1cc([N+](=O)[O-])cn1)Nc1cc(C(F)(F)F)ccc1Cl", "viability at 28.5 h, 10 µM", 108]
]}

Asked: What does the record list as viability at 28.5 h, 10 µM for Cc1nnc(CN(CC2CCCO2)C2CCC(C)CC2)n1C (centres unmarked) ?
Given back: 95.2

Asked: Same lookup for "CCOC(=O)c1c(C)nc2ccccc2c1O" , please.
Given back: 110

Asked: Proceed to "O=C1CC[C@@H](NCc2cccs2)[C@H](c2cc(F)cc(F)c2)N1"
Given back: 95.5

Asked: Now the compound "COc1cccc(/C=C\c2onc(C)c2[N+](=O)[O-])c1OCC(=O)O"
Given back: 104

====

The following molecules are listed with their measured viability at 28.5 h, 10 µM values.
# Assay protocol: in vitro
# Condition info: human, hela cells, % viability
// note: answer is a bare numeric in %

{"columns": ["Molecule", "viability at 28.5 h, 10 µM [%]"],
 "data": [
  ["Nc1cccc(-c2cncc(Nc3ccccc3)n2)c1", 96.2]
]}

Asked: # viability at 28.5 h, 10 µM lookup, item CC(=O)C1=C(O)C(=O)N(CCN2CCNCC2)C1c1cccc([N+](=O)[O-])c1 (centres unmarked)
Given back: 101

Asked: Same for "COc1ccc(C2(C(=O)NCc3ccncc3)CCOCC2)cc1"
Given back: 103

Asked: Follow-up entry: O=C(c1cc2c(F)cccc2[nH]1)N1CCCCC1CCN1CCCC1 (centres unmarked)
Given back: 85.7

Asked: How about this molecule: COc1ccc(C2NCCS2)cc1Br (centres unmarked)
Given back: 104
